target: Fatty acid synthase (Homo sapiens); assay: inhibition of human FAS-TE enzyme activity – biochemical, fluorescence intensity, uHTS, primary screen (AID 602261); conditions: recombinant FAS-TE, OMFH fluorogenic substrate, fluorescence endpoint; at 15 µM; active compounds read high;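 note: 0% = DMSO with enzyme and 100% = substrate without enzyme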
Among all 360,000 compounds or so, about 2,400 (0.67%) were called active. This is one part of a sample in which actives are shown more often than they occur.

Compound	inhibition, %
O=C(c1ccc2c(c1)N(Cc1ccc(F)cc1)C(=O)c1ccccc1S2(=O)=O)N1CCN(c2ccccn2)CC1	56.9
COc1ccc2c(CC(=O)NNC(=O)c3ccccc3F)coc2c1	-5
COc1ccc(-c2nnc(SC(=O)N3c4ccccc4Sc4ccccc43)o2)cc1	51.9
O=C(c1ccc2c(c1)C(=O)N(c1ccc(Cl)cc1)C2=O)N1CCN(c2ccccn2)CC1	-5.5
CCOc1cc(/C=C(/C#N)c2ccc(Cl)cc2)cc(Cl)c1OCC(=O)O	53.1
COc1ccc(-c2nnc(SC(C)C(=O)NC3CC3)o2)cc1 (centres undefined)	-5.6
COc1cc(/C=C(/NC(=O)c2ccc(Cl)cc2Cl)C(=O)O)cc(OC)c1OC	0.9
CC(C=Cc1ccccc1)=NNS(=O)(=O)c1ccc([N+](=O)[O-])cc1	58.3
COCCCNCC(=O)Nc1sc(C)c(C)c1C(=O)OC	-3.7
COc1cc(C(O)c2nc(-c3cnn(C)c3)cs2)ccc1F (centres undefined)	-5.1
C=CCSc1nsc(NC(=O)Nc2cccc(C(C)=O)c2)n1	3.9
C=C(Cl)COC(=O)C1C2C=CC(C2)C1C(=O)O (centres undefined)	-6.6
COc1cc2c(=O)n(C)c3ccccc3c2cc1OC	-3.2
CC(/C=C/c1ccccc1)=N\NC(=O)C1CC1(C)c1ccccc1 (centres undefined)	20

* * *

biological target: Fatty acid synthase (Homo sapiens); assay: inhibition of human FAS-TE enzyme activity – biochemical, fluorescence intensity, uHTS, primary screen (AID 602261); settings: recombinant FAS-TE, OMFH fluorogenic substrate, fluorescence endpoint; at 15 µM;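 note: 0% = DMSO with enzyme and 100% = substrate without enzyme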
Screen size: about 360,000 compounds; about 2,400 (0.67%) were called active.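 The calls were made as follows: active = compounds whose normalised, plate-corrected inhibition of enzyme fluorescence in the single-dose primary screen is 50% or more; inactive = the rest.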 The sample holds actives, similar compounds and a random draw of the others, so the mix is not that of the screen.
Possible outcomes: Yes for active, No for inactive

Compound	Qualitative label
COc1ccc(-c2nc3cnccn3c2NC(C)(C)CC(C)(C)C)cc1O	Yes
CCOC(=O)c1ccc(-c2ccc3ncnc(N(C)Cc4sccc4C)c3c2)o1	No
O=C(Nc1ccccc1Cl)c1ccccc1S(=O)(=O)c1ccccc1[N+](=O)[O-]	No
CC(=O)c1nn(-c2cccc(Br)c2)cc1C(=O)c1cccc2ccccc12	No
CCOC(=O)C1=CN(Cc2ccc(Br)cc2)S(=O)(=O)NC1C (stereo not given)	No
CCOc1ccc(Br)cc1S(=O)(=O)Nc1ccc(S(=O)(=O)Nc2cc(C)on2)cc1	No
O=C(Nc1ccccc1Cl)/C(Cl)=C(\Cl)S(=O)c1ccccc1 (stereo not given)	Yes
COc1ccc(SCc2noc(C(=O)NCC3CCCO3)c2C(=O)O)cc1 (stereo not given)	No
Cc1ccccc1-c1nc(NC(C)C)nc2cc(-c3ccccc3)sc12	No
Cc1cc(C(=O)OCC(=O)Nc2ccccc2Cl)c(C)o1	No

* * *

Collected inhibition values appear next to each entry.
target: Fatty acid synthase (Homo sapiens); experiment: inhibition of human FAS-TE enzyme activity – biochemical, fluorescence intensity, uHTS, primary screen (AID 602261); settings: recombinant FAS-TE, OMFH fluorogenic substrate, fluorescence endpoint; at 15 µM; active compounds read high;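 note: 0% = DMSO with enzyme and 100% = substrate without enzyme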
About 2,400 (0.67%) of roughly 360,000 compounds were called active. Shown is part of a subset that was picked to be rich in actives.

Compound	Unit descriptor	inhibition
O=C(COC(=O)Cc1ccc(Cl)cc1Cl)NCc1ccco1	%	-8.2
CC(C)(C)NC(=O)NC(=O)COC(=O)Cc1c(F)cccc1Cl	%	4.6
Cc1cccc(N=C2SC(C)CN2C(=O)CN2C(=O)NC3(CCCC3)C2=O)c1 (stereo not given)	%	3.9
CN(C(=O)c1ccc(NC(=O)Cc2cccc(NC(=O)C3CCN(C(=O)c4ccccc4)CC3)c2)cc1)C1CC1	%	-9.5
O=C(Nc1ccc(S(=O)(=O)N2CCCCCC2)cc1)c1c(F)cccc1F	%	12
COc1ccc(NC(=O)CCn2ccnc2)c(OC)c1	%	-2.6
CCCN1Cc2cccc(C(=O)Nc3ccc(S(=O)(=O)N4CCCCCC4)cc3)c2C1=O	%	54.7
CC(C)(C)NC(=O)NC(=O)COC(=O)Cc1ccc(Cl)cc1Cl	%	69.5
Cc1ccc(S(=O)(=O)N2CC(C)N(S(C)(=O)=O)C2)cc1 (stereo not given)	%	-3.6
Cc1cccc(N=C2NC(=O)/C(=C/c3cn(C)c4ccccc34)S2)c1	%	52.4

* * *

target: Fatty acid synthase (Homo sapiens); assay: inhibition of human FAS-TE enzyme activity – biochemical, fluorescence intensity, uHTS, primary screen (AID 602261); settings: recombinant FAS-TE, OMFH fluorogenic substrate, fluorescence endpoint; at 15 µM; active compounds read high;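 note: 0% = DMSO with enzyme and 100% = substrate without enzyme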
In all, about 360,000 compounds went through this assay and about 2,400 (0.67%) were called active. Many of the other results were omitted from the sample, so actives are more common in it than they were.
Readout name: inhibition (%)

Compound	Recorded result
COc1ccc(-c2cc(NC=O)c3ncc(-c4ccccc4)n3c2)cc1OC	28.3
Oc1c(Cl)cc(Cl)c(Cl)c1Cc1c(O)c(Cl)cc(Cl)c1Cl	83.7
Cc1ccc(C2SCC(=O)N2c2ccccc2)cc1 (stereo unspecified)	-5.6
COC(=O)c1sc2[nH]c(=S)n(N)c(=O)c2c1C	-6.3
O=C(N/N=C/c1cc([N+](=O)[O-])ccc1O)/C(=C\c1cccs1)NC(=O)c1ccccc1	56.5
COC(=O)[C@@H](NC(=O)NCc1cccc(OC)c1)C(C)C	-7.7

* * *

molecular target: Fatty acid synthase (Homo sapiens); assay: inhibition of human FAS-TE enzyme activity – biochemical, fluorescence intensity, uHTS, primary screen (AID 602261); conditions: recombinant FAS-TE, OMFH fluorogenic substrate, fluorescence endpoint; at 15 µM; active compounds read high;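 note: 0% = DMSO with enzyme and 100% = substrate without enzyme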
The campaign covered roughly 360,000 compounds. About 2,400 (0.67%) were called active. For the sample, actives were picked, then their nearest neighbours and some compounds at random.

Compound	inhibition (%)
CCOC(=O)c1nnn2c1nc(N1CCN(c3ccccc3)CC1)c1ccccc12	19.9
CC1CCN(C(=S)c2cccc(O)c2)CC1	-0.1
CCOc1ccc(Br)cc1S(=O)(=O)Nc1ccc(C(=O)OC(C)C(=O)N(C)c2ccccc2)cc1 (centres undefined)	53.8
CCOC(=O)c1ccc(COC(=O)CCc2nc(-c3ccccc3)c(-c3ccccc3)o2)cc1	26.3
COc1ccc(CN2[C@@H](CC(=O)O)c3cc(F)ccc3S2(=O)=O)cc1	-9.9
Cc1nc2c(OCc3ccc(Cl)cc3Cl)cccn2c1N(C)CC1CC1	57.2
CCc1nc2c(OCc3ccc(Cl)cc3Cl)cccn2c1N(C)C(=O)C(C)C	9.4
CCCOc1ccc(/C(O)=C2/C(=O)C(=O)N(CCN(C)C)C2c2ccc(OC)c(OC)c2)cc1 (centres undefined)	-4.4
CC(C)=CCc1ccc(O)c(=O)cc1C(C)C	-0.3

* * *

target: Fatty acid synthase (Homo sapiens); assay: inhibition of human FAS-TE enzyme activity – biochemical, fluorescence intensity, uHTS, primary screen (AID 602261); conditions: recombinant FAS-TE, OMFH fluorogenic substrate, fluorescence endpoint; at 15 µM; active compounds read high;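 note: 0% = DMSO with enzyme and 100% = substrate without enzyme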
In all, about 360,000 compounds went through this assay and about 2,400 (0.67%) were called active. The sample as a whole holds a higher share of actives than the screen did.
Readout name: inhibition (%)

Compound	Recorded result
COc1cccc(N2C(=O)CN(Cc3ccccc3)C2=S)c1	-0.9
O=C(c1[nH]ncc1-c1ccc(Cl)cc1)C1CO1 (centres undefined)	-22
COc1ccc(S(=O)(=O)Nc2ccc(F)cc2)c(C)c1C	1.1
Cc1cccc([C@@H]2[C@@H]3C(=O)N(Cc4ccccc4)C(=O)[C@@H]3[C@]3(Cc4ccc(Cl)cc4)C(=O)N(c4cccc(Cl)c4)C(=O)N23)c1	91.3
CC(=O)c1sc(N/N=C/c2ccc(C(C)C)cc2)nc1C	58.4
O=C(/C=C/c1cccc([N+](=O)[O-])c1)N1CCN(Cc2ccccc2)CC1	69.8
Cc1ccccc1-n1c(SCC(=O)Nc2cccc3ccccc23)nc(O)cc1=O	-5.5
Cc1cccc([C@@H]2[C@@H]3C(=O)N(Cc4ccccc4)C(=O)[C@@H]3[C@]3(C)C(=O)N(c4ccc(Br)cc4)C(=O)N23)c1	39.4
NS(=O)(=O)c1ccc(N=Cc2ccc(Br)s2)cc1	-8.2
O=S(=O)(Nc1cccc(-n2cnnn2)c1)c1cnc(Cl)c(Cl)c1	56.8
O=C(NCCO)c1cccc(-c2cccc3nccn23)c1	-6.3
COC(=O)CCCCC1=CCC2C(=O)C=C(O)C2C1 (centres undefined)	-0.8
CCN(CCCNC(=O)CSc1cc(=O)n(C)c2cc(Cl)ccc12)Cc1ccccc1	1.5
FC(F)(F)c1cccc(-c2cc3ccccc3nc2N2CCCC2)c1	18.4
Cc1ccc(C)c(S(=O)(=O)Nc2cccc(-n3cnnn3)c2)c1	4.5
N#CCC(=O)N/N=C/c1ccc(SCC(=O)Nc2ccccc2)o1	-2.5
Cn1c(=O)n(C)c2cc(NS(=O)(=O)c3ccc(F)cc3)ccc21	-7.3
O=C(NCc1ccco1)c1ccc(CS(=O)(=O)Cc2ccc(F)cc2)o1	-5.6
CCCCNC(=O)OC1CC2CC1[C@H]1CCCCN1C2=O (some centres undefined)	-13
Cc1ccc(C(=O)N/C(=C/c2cccs2)C(=O)N2CCCCC2)cc1	-8.4
CC(=O)c1sc(NC(=O)C2=NN(c3ccccc3)C(=O)CC2)nc1C	-6.4
CCCCc1nc2cc(C(=O)NCCc3cnn(C)c3)ccc2o1	-2.8
Clc1ccc2c(c1)C1=C(C(c3ccncc3)O2)C(c2ccc(Br)cc2)n2ncnc2N1 (centres undefined)	71.3
CCOc1ccccc1NC(=O)C12CC3CC(C1)CC(c1ccc(C)cc1)(C3)C2	33.7

Hello, the source for this data is PubChem BioAssay AID602261, in case you need it.
